Record: pKi reported on Sodium-dependent serotonin transporter (Rattus norvegicus, UniProt P31652).
Sequence (P31652 whole entry): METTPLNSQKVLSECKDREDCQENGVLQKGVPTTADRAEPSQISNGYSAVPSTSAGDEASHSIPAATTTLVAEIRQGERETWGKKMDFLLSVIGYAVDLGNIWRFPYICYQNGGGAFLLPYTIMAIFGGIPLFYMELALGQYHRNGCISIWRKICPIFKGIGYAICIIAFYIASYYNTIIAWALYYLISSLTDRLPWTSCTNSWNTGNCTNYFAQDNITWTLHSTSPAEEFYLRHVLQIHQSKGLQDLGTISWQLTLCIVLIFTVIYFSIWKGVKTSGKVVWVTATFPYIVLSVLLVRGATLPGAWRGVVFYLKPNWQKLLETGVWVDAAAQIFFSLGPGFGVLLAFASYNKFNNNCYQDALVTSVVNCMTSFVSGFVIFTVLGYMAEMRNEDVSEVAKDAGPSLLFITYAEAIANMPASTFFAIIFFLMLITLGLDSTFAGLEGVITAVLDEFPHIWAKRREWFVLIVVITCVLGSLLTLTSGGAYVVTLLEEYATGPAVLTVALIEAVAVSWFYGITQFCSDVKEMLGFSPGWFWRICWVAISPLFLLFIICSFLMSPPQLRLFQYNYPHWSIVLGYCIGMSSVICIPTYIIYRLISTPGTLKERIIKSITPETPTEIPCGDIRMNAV
Bear in mind: pKi is minus log10 of a mol/L concentration; give just that figure.

A selection of reference data follows.
C(=C\c1ccccc1)/CN1CCN(CCOC(c2ccccc2)c2ccccc2)CC1 [CAS_67469-75-4] : 5.72
CN(C)C[C@@H]1C2CCC(CC2)[C@@H]1c1ccc(Cl)c(Cl)c1 : 7.29

Requested read-out: pKi. Entry: CNCCCC1(c2ccccc2)SC(C)(C)c2ccccc21 (stereo not drawn) [Talsupram]
6.07

---

Reported pKi, 5-hydroxytryptamine receptor 2A (Rattus norvegicus, UniProt P14842).
Please express pKi as -log10 of the molar concentration.

CNCCC(Oc1ccccc1OC)c1ccccc1 (stereo unspecified) : 6.21
Fc1ccc(C(OCCN2CCN(C/C=C/c3ccccc3)CC2)c2ccc(F)cc2)cc1 : 5.47
COc1ccc2c(c1)CN(C)CC2c1ccc(Cl)c(Cl)c1 (stereo unspecified) : 6.26

So what does the record say about pKi for CNCCCC1(c2ccccc2)SC(C)(C)c2ccccc21 (stereo unspecified) [Talsupram] ?
5.80

Record request: pKi value, item C(=C\c1ccccc1)/CN1CCN(CCOC(c2ccccc2)c2ccccc2)CC1 [CAS_67469-75-4]
6.00
